molecular target: SNAP23; experiment: pooled miR-30 sensor sort-seq; sequence = guide strand; conditions: shRNA
readout kind: sensor-assay potency score (higher = more potent)
Keep it simple and answer with nothing but the number.

The examples below pair each entry with its known result.
Supply reported sensor-assay potency score (higher = more potent) belonging to this sequence: `TATAACTGCAACTTAAATCAAA`
-0.858

Hello, please tell me recorded sensor-assay potency score (higher = more potent) for this one: `TTAGATACTACATTGCAAGGTG`
0.78

Return reported sensor-assay potency score (higher = more potent). Input sequence: `TTAGTTATGCTATTACATGGGC`
-0.215

Supply sensor-assay potency score (higher = more potent) value. Item: `TTGAGTCAGGTTCTCTTCCATT`
-1.05

// moving on: another record for sensor-assay potency score (higher = more potent)
Tell me sensor-assay potency score (higher = more potent) reported for `TTATTTGTGGATTTTGAGCATC`
-0.871

* * *

molecular target: SLIT1; assay: pooled miR-30 sensor sort-seq; sequence = guide strand; conditions: shRNA
Label Y when sensor-assay potency score (higher = more potent) is at or above -1; anything below gets N.

// below: answered sequences
Textbook exercise: given the entry `TTGCTTAAGGAACTGATCTTGT` , state whether its sensor-assay potency score (higher = more potent) is greater than or equal to -1.
Y

For this sequence, is measured sensor-assay potency score (higher = more potent) -1 or higher? `TTGAGGATCTGCCACAGGCGGA`
N

Evaluate `TTGCAGGTCAGTGAACTGCAGG` : sensor-assay potency score (higher = more potent) at minimum -1?
N

Attention now turns to another entry.
Decide: is the reported value of sensor-assay potency score (higher = more potent) for `TTGCTCACACAGCTCGCCCGAA` equal to or greater than -1?
Y

* * *

target: MIS12; test: pooled miR-30 sensor sort-seq; sequence = guide strand; conditions: shRNA
Each entry below carries its reported sensor-assay potency score (higher = more potent).

Some sequences with recorded sensor-assay potency score (higher = more potent):
Specify sensor-assay potency score (higher = more potent) for `TTAGTACATAATTCAGTCTTGT` and stop.
-0.329

State, in one line, measured sensor-assay potency score (higher = more potent) of `TATGATTCTACTTTTTGACAGG`
-0.668

Quickly give me recorded sensor-assay potency score (higher = more potent) for `TCTCCTTACATTTATCTTCAGG`
-1.19

Item `TAATGTTCTGTAGTTTTCTGGA` : provide sensor-assay potency score (higher = more potent)
-0.154

Identify sensor-assay potency score (higher = more potent) associated with the sequence `TTGAAATGCAATGTAGATCCGA`
0.852

Tell me measured sensor-assay potency score (higher = more potent) for `TAATTCTGCAAGAAGGGCCTGC` please.
0.0971

Answer with the recorded sensor-assay potency score (higher = more potent) for the sequence listed here: `TTTTTTGCTCTTCTAATTCTGC`
-0.78

Indicate the recorded sensor-assay potency score (higher = more potent) value for this sequence: `TTTATCTTCAGGAAGCAAGATG`
-0.586

Continue with the next sequence.
Quickly give me recorded sensor-assay potency score (higher = more potent) for `TGAAATGCAATGTAGATCCGAA`
0.0164

* * *

biological target: MUM1L1; assay: pooled miR-30 sensor sort-seq; sequence = guide strand; conditions: shRNA
Each item that follows carries a reported sensor-assay potency score (higher = more potent).
// no unit string in output, number only

Provide sensor-assay potency score (higher = more potent) value for the following sequence: `TTTGATTGCAGACTTCTTGTAA`
0.165

Tell me sensor-assay potency score (higher = more potent) reported for `TTAGATACTTTGCTTCAGCTGC`
-0.267

Tell me measured sensor-assay potency score (higher = more potent) for `TAAACCAGACTATCATTCCTGT` please.
-0.0642

Recall and state the measured sensor-assay potency score (higher = more potent) for `TTGAGATTTATTTAGGATCTTT` .
-0.143

***
Output sensor-assay potency score (higher = more potent) of `TTTGTTTCTCTTTACAATCAAA`
-1.34

Supply reported sensor-assay potency score (higher = more potent) belonging to this sequence: `TTTGTTTCCACTTCACTTGGAA`
0.402

Answer with the recorded sensor-assay potency score (higher = more potent) of `TAACACATGCACTTTCCTCTTT` only.
-0.0342

Give reported sensor-assay potency score (higher = more potent) value for `TTGTGGTACATTTTGAGACAGC`
-1.11

Supply measured sensor-assay potency score (higher = more potent) of `TATTTGATTGCAGACTTCTTGT` in your reply.
0.00671

For `TTAGTGATCTTCCATAGGCAGT` , write its sensor-assay potency score (higher = more potent).
-1.42

* * *

target: ERCC8; experiment: pooled miR-30 sensor sort-seq; sequence = guide strand; details: shRNA
readout kind: sensor-assay potency score (higher = more potent)
I only need the number, thanks.

Give sensor-assay potency score (higher = more potent) for `TTGTTGTAGTCTCATCATCATC`
-1.65

Identify measured sensor-assay potency score (higher = more potent) corresponding to `TTCTTTCAACATCTCTGTCTTT`
-0.331

Others:
Please give measured sensor-assay potency score (higher = more potent) of the following entry: `TAGCTGTCAGGAATAGACCATA`
-0.945

// fetch sensor-assay potency score (higher = more potent) given entry `TAACTTTCCCATTATGAGCAGT`
-0.724

Tell us which sensor-assay potency score (higher = more potent) value is on record for `TTCGATTATCTGTACCAACAGT`
-0.994

Query sensor-assay potency score (higher = more potent) for `TTACTCTACTGTCAGCACTTGC`
-0.793

Find the measured sensor-assay potency score (higher = more potent) of `ATTATCTGTACCAACAGTGAGG` and report it.
-0.965

* * *

Below, each entry is listed alongside its reported sensor-assay potency score (higher = more potent).
molecular target: COG2; assay: pooled miR-30 sensor sort-seq; sequence = guide strand; settings: shRNA
No unit in the answer, only the number.

Fill in reported sensor-assay potency score (higher = more potent) for this entry: `TAATCTCTTTACACTAGCCTGT`
-0.36

Continuing:
Note down sensor-assay potency score (higher = more potent) recorded for `TTTCTCATGAAATGCATCGGGA`
-0.465

// Input: `TTGTTTGAGCTTATCCTTGTGT` . Output its sensor-assay potency score (higher = more potent) only.
0.0501

State its sensor-assay potency score (higher = more potent): `TTCTGTGGCAATTCTCTCCAAA`
-0.386

Specify measured sensor-assay potency score (higher = more potent) for `TTGTCGTCGTCGCTCATGCCAC` .
-1.52

Could you please provide reported sensor-assay potency score (higher = more potent) for `TTTAATACATCTGACACGGTTT` ? Thanks!
-0.235

* * *

target: SLC25A25; experiment: pooled miR-30 sensor sort-seq; sequence = guide strand; details: shRNA
Below is a list of entries, each paired with its recorded sensor-assay potency score (higher = more potent) value.
Please give only the number in your answer, with no unit.

Below: 5 sequences and their reported sensor-assay potency score (higher = more potent).
Please report sensor-assay potency score (higher = more potent) for the following sequence: `TAGACTGCAAGGTCGATGCCGG`
-0.614

Provide one value: measured sensor-assay potency score (higher = more potent) of `TTCTCGTAGACCACGTAGCTGA`
-0.478

Give a short answer stating reported sensor-assay potency score (higher = more potent) for `TGCATGAGCACCTTGAGCCTGT` .
-0.00686

Give sensor-assay potency score (higher = more potent) for `TTAAATGACAACTTCTAACGTC`
0.538

Given `TTGAGCGTCTCGTAGACTGCAA` , respond with its sensor-assay potency score (higher = more potent).
0.033

Next:
Entry `TATCTTGACTCCCAAGTCCCGC` needs its sensor-assay potency score (higher = more potent) filled in; supply it.
-1.03

Please indicate sensor-assay potency score (higher = more potent) recorded for `TTCCAGTCGATGGTCATCGTGC`
-0.398

* * *

target: FBXL3; experiment: pooled miR-30 sensor sort-seq; sequence = guide strand; conditions: shRNA
sensor-assay potency score (higher = more potent) vs -0.02: at or above is Met, below is Not met.

Form field: sensor-assay potency score (higher = more potent) at least -0.02? Entry: `TTCCTTGCTGCTGTCCACCTTG`
Not met

Kindly determine if sensor-assay potency score (higher = more potent) recorded for `TTGCTTGAAATTAAGGTGCTAT` is above or exactly -0.02.
Met

Is sensor-assay potency score (higher = more potent) for `TTAATTATAATACATTTGCTTG` at or above -0.02?
Not met

I'd appreciate it if you could say whether `TACTTGGAGAATAATGTCCTGA` has sensor-assay potency score (higher = more potent) at least equal to -0.02.
Met

Is it the case that `TAACTCTTCATCAAGTGGCCGT` has sensor-assay potency score (higher = more potent) reaching or exceeding -0.02?
Not met

Is sensor-assay potency score (higher = more potent) for `TATGGAAGTGTGTCTGTCCAGG` at or above -0.02?
Not met

Answer whether sensor-assay potency score (higher = more potent) of `TACTGGAGTATCATCTATCTTA` is greater than or equal to -0.02.
Not met

# check: sensor-assay potency score (higher = more potent) of `TACATCACTAAGTTCACTTTGG` is greater than or equal to -0.02
Met

Continue with the sequence presented below.
Determine whether this sequence has sensor-assay potency score (higher = more potent) no lower than -0.02: `TTTAATAATCTGTTTGATCAGC`
Not met
